# MEASUREMENT_PROTOCOL: T. cruzi intracellular proliferation inhibitors, primary screen, cell-based, beta-gal Tulahuen parasites, NIH3T3 host, luminescence (AID 624255)
# CONDITION_INFO: T. cruzi beta-gal in NIH3T3, GalScreen luminescence, 90 h; at 8.34 µM
In all, about 77,000 compounds went through this assay and about 4,600 (6%) were called active. Inconclusive results (about 1%) are left out.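 Rule for the calls: active = mean inhibition above about 93%, with at least 55% of replicates each passing it (limit read from the data, passing the limit was not always enough); inconclusive = only one of those two conditions holds; inactive = neither condition holds.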 The sample as a whole holds a higher share of actives than the screen did.
A correct response names exactly one class from active, inactive

{"columns": ["QUERY_SMILES", "GROUP_LABEL"],
 "data": [
  ["CN1C(=O)c2cc(NS(=O)(=O)c3ccc(F)cc3)ccc2OC[C@@H]2O[C@@H](CC(=O)O)CC[C@H]21", "inactive"],
  ["COCC(=O)N1CCCCN2[C@H](CO)[C@H](c3ccc(-c4ccc(OC)cc4)cc3)[C@H]2C1", "inactive"],
  ["C[C@@H]1CN([C@H](C)CO)C(=O)Cc2cc(N(C)C)ccc2O[C@H]1CN(C)S(C)(=O)=O", "inactive"],
  ["COc1ccc(S(=O)(=O)Nc2ccc3c(c2)C(=O)N([C@@H](C)CO)C[C@H](C)[C@@H](CN(C)S(=O)(=O)c2ccc(F)cc2)OCCCC[C@H](C)O3)cc1", "inactive"],
  ["Cc1ccc(S(=O)(=O)N(C)C[C@H]2OCCCC[C@H](C)Oc3ccc(NS(=O)(=O)c4c(C)noc4C)cc3C(=O)N([C@H](C)CO)C[C@@H]2C)cc1", "inactive"],
  ["CCCNC(=O)Nc1ccc2c(c1)OC[C@@H](C)N(C(=O)c1ccccc1F)C[C@H](C)[C@@H](OC)CN(C)C2=O", "inactive"]
]}

Test call for this molecule, please: O=C(CN1CCOCC1)N1CCCCN2[C@H](CO)[C@H](c3ccc(-c4ccccc4)cc3)[C@@H]2C1 active

Test call for this molecule, please: CCC(=O)N1CCCCN2[C@H](CO)[C@@H](c3ccc(-c4cccnc4)cc3)[C@H]2C1 inactive

###

# MEASUREMENT_PROTOCOL: T. cruzi intracellular proliferation inhibitors, primary screen, cell-based, beta-gal Tulahuen parasites, NIH3T3 host, luminescence (AID 624255)
# CONDITION_INFO: T. cruzi beta-gal in NIH3T3, GalScreen luminescence, 90 h; at 8.34 µM; stronger effect = higher value
Hit rate of the full screen: of about 77,000 compounds, about 4,600 (6%) were called active. Inconclusive results (about 1%) are left out. This is one part of a sample in which actives are shown more often than they occur.
PARAMETER_MEASURED: inhibition (%)
Answers are plain numbers, in %.

{"columns": ["QUERY_SMILES", "inhibition, %"],
 "data": [
  ["Cc1noc(C)c1NC(=O)N(C)C[C@H]1OCCCC[C@H](C)Oc2ccc(NC(=O)Nc3ccccc3)cc2C(=O)N([C@H](C)CO)C[C@@H]1C", -11.2],
  ["C[C@@H]1CCCCO[C@@H](CN(C)S(=O)(=O)c2ccc(F)cc2)[C@@H](C)CN([C@@H](C)CO)C(=O)c2cc(NC(=O)Nc3ccc4c(c3)OCO4)ccc2O1", 23.6],
  ["COc1ccc(NC(=O)Nc2ccc3c(c2)C(=O)N([C@H](C)CO)C[C@H](C)[C@@H](CN(C)S(=O)(=O)c2ccc(OC)cc2)OCCCC[C@H](C)O3)cc1", -12],
  ["C[C@@H]1CCCCO[C@H](CN(C)S(=O)(=O)c2ccc(Cl)cc2)[C@H](C)CN([C@H](C)CO)C(=O)c2cc(NC(=O)NC3CCCCC3)ccc2O1", 92.2],
  ["CC(C)NC(=O)Nc1ccc2c(c1)C(=O)N([C@H](C)CO)C[C@@H](C)[C@@H](CN(C)S(=O)(=O)c1ccc(Cl)cc1)OCCCC[C@H](C)O2", 55]
]}

API: the following record is the query input.
// returns reported inhibition for input COc1ccc(-c2ccc([C@@H]3[C@@H](CO)N4CCCCN(C(=O)NC(C)C)C[C@H]34)cc2)cc1 73.2

###

# MEASUREMENT_PROTOCOL: T. cruzi intracellular proliferation inhibitors, primary screen, cell-based, beta-gal Tulahuen parasites, NIH3T3 host, luminescence (AID 624255)
# CONDITION_INFO: T. cruzi beta-gal in NIH3T3, GalScreen luminescence, 90 h; at 8.34 µM
Screen size: about 77,000 compounds; about 4,600 (6%) were called active. Roughly 1% stayed inconclusive and do not appear here.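 The calls were made as follows: active = mean inhibition above about 93%, with at least 55% of replicates each passing it (limit read from the data, passing the limit was not always enough); inconclusive = only one of those two conditions holds; inactive = neither condition holds.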 The sample as a whole holds a higher share of actives than the screen did.
A correct response names exactly one class from active, inactive

Previously resolved entries follow.
{"columns": ["QUERY_SMILES", "GROUP_LABEL"],
 "data": [
  ["Cc1cccc(-c2ccc([C@@H]3[C@H](CO)N4CCCCN(C(=O)c5ccc6c(c5)OCO6)C[C@@H]34)cc2)c1", "active"],
  ["C[C@@H](O)C#Cc1ccc([C@H]2[C@H]3CN(C(=O)c4ccc5c(c4)OCO5)CCCCN3[C@H]2CO)cc1", "inactive"]
]}

Test call for this compound, please: C[C@H]1CN([C@@H](C)CO)S(=O)(=O)c2ccc(C#CCN(C)C)cc2O[C@H]1CN(C)C(=O)CN(C)C inactive

Test call for this compound, please: CCCC#Cc1ccc2c(c1)O[C@H](CN(C)C(=O)CC)[C@@H](C)CN([C@H](C)CO)S2(=O)=O active

###

# MEASUREMENT_PROTOCOL: T. cruzi intracellular proliferation inhibitors, primary screen, cell-based, beta-gal Tulahuen parasites, NIH3T3 host, luminescence (AID 624255)
# CONDITION_INFO: T. cruzi beta-gal in NIH3T3, GalScreen luminescence, 90 h; at 8.34 µM; stronger effect = higher value
The whole screen tested about 77,000 compounds, of which about 4,600 (6%) were called active. Roughly 1% stayed inconclusive and do not appear here. The list comes from a sample in which actives are over-represented; it also holds close analogues and randomly drawn compounds.
PARAMETER_MEASURED: inhibition (%)
Answers are plain numbers, in %.

// worked examples, inhibition included
{"columns": ["QUERY_SMILES", "PARAMETER_MEASURED", "RESULT"],
 "data": [
  ["O=S(=O)(c1ccccc1)N1CC[C@@H]2[C@@H](CO)Nc3ccc(C#Cc4cccc(F)c4)cc3[C@@H]21", "inhibition", 105],
  ["COc1ccccc1S(=O)(=O)N1CC[C@@H]2[C@H]1c1cc(-c3ccccc3)ccc1N[C@@H]2CO", "inhibition", 71.9],
  ["O=S(=O)(c1ccccc1)N1CC[C@@H]2[C@H]1c1cc(C#Cc3cccc(F)c3)ccc1N[C@@H]2CO", "inhibition", 102]
]}

Give inhibition for all molecules that follow.
1. N#Cc1cccc(-c2ccc3c(c2)[C@H]2[C@H](CCN2S(=O)(=O)c2ccc(F)cc2)[C@@H](CO)N3)c1
2. Cn1cnc(S(=O)(=O)N2CC[C@@H]3[C@H]2c2cc(C#Cc4cccc(F)c4)ccc2N[C@@H]3CO)c1
3. O=C(Nc1ccccc1)N1CCCCN2[C@H](CO)[C@@H](c3ccc(C#Cc4ccccn4)cc3)[C@H]2C1

1. 19.2
2. -22.2
3. 108

Give inhibition for all molecules that follow.
1. Cc1ccccc1-c1ccc([C@@H]2[C@@H](CO)N3CCCCN(C(=O)Nc4cccc(F)c4)C[C@H]23)cc1
2. COc1ccc(C#Cc2ccc([C@H]3[C@@H](CO)N4CCCCN(C(=O)Nc5ccccc5)C[C@H]34)cc2)cc1

[91.9, 80.4]

###

Kindly state inhibition for each of the entries shown.
# MEASUREMENT_PROTOCOL: T. cruzi intracellular proliferation inhibitors, primary screen, cell-based, beta-gal Tulahuen parasites, NIH3T3 host, luminescence (AID 624255)
# CONDITION_INFO: T. cruzi beta-gal in NIH3T3, GalScreen luminescence, 90 h; at 8.34 µM; stronger effect = higher value
About 4,600 (6%) of roughly 77,000 compounds were called active. Another 1% or so got no clear call; they are omitted. The entries come from a sample that favours actives as a whole.

// worked examples, inhibition included
{"columns": ["QUERY_SMILES", "PARAMETER_MEASURED", "RESULT"],
 "data": [
  ["O=C(C[C@@H]1CC[C@H]2[C@@H](COC[C@@H](O)CN2C(=O)c2ccc3c(c2)OCO3)O1)NC1CCCC1", "inhibition", "27% (inactive)"],
  ["O=C(Nc1cc(Cl)cc(Cl)c1)N[C@H]1CC[C@@H](CCNS(=O)(=O)c2cccc(F)c2)O[C@H]1CO", "inhibition", "117% (active)"],
  ["CO[C@H]1CN(C)C(=O)c2cc(NC(=O)C3CCCCC3)ccc2OC[C@H](C)N(C(=O)c2ccccc2)C[C@H]1C", "inhibition", "7.09% (inactive)"],
  ["COc1ccc(S(=O)(=O)N[C@@H]2CC[C@H](CC(=O)N3CCc4ccccc4C3)O[C@H]2CO)cc1", "inhibition", "16.5% (inactive)"],
  ["O=C(Nc1ccc(Cl)cc1)N[C@@H]1CC[C@@H](CCNC(=O)c2ccccc2F)O[C@H]1CO", "inhibition", "169% (active)"]
]}

Give inhibition for all molecules that follow.
1. C[C@@H](NC(=O)C[C@@H]1CC[C@@H]2[C@H](COC[C@@H](O)CN2C(=O)Nc2cccc(F)c2)O1)c1ccccc1
2. C[C@@H]1CN([C@@H](C)CO)C(=O)c2cc(-c3cncnc3)cnc2O[C@H]1CN(C)C(=O)c1cccc(F)c1
3. O=C(Nc1ccc(C(F)(F)F)cc1)N[C@@H]1CC[C@H](CCNC(=O)c2ccccc2F)O[C@H]1CO

21.9% (inactive)
0.0585% (inactive)
-57% (inactive)
